For each entry below, report its EC50 value.
Molecular target: PPARγ (Homo sapiens, UniProt P37231)
Sequence (P37231 whole entry): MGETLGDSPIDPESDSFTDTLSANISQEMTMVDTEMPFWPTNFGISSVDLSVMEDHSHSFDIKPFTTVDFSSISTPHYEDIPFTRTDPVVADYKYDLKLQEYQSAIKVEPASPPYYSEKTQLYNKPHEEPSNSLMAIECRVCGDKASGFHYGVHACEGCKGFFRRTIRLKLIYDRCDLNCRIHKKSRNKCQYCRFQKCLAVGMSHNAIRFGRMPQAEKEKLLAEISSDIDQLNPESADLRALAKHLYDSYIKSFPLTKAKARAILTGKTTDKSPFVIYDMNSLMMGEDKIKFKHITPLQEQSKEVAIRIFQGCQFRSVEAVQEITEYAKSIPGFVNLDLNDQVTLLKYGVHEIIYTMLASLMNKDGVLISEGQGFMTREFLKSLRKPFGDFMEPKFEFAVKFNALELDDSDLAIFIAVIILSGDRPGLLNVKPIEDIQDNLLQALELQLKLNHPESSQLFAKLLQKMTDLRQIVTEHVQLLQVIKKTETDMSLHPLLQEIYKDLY
Assay: Alpha screen assay, agonist mode, ligand dependent interaction of PPAR with coactivator peptide
Assay type: biochemical
Conditions: Alpha screen, agonist mode; read-out: PPARγ Agonist

Request - read-out EC50 | tested on PPARγ (Homo sapiens, UniProt P37231) | molecule CCCCc1ccc(S(=O)(=O)n2cc(CCC(=O)O)c3cc(OC)ccc32)cc1 [compound 77]
≤ 10 µM

Give PPARγ (Homo sapiens, UniProt P37231) EC50 for CCOc1ccc2c(c1)c(CCC(=O)O)cn2S(=O)(=O)c1ccccc1 [compound 82]
≤ 10 µM

Please state recorded EC50 (tested on PPARγ (Homo sapiens, UniProt P37231)) of COc1ccc2c(c1)c(CCC(=O)O)cn2S(=O)(=O)c1ccc(Cl)cc1 [compound 49]
≤ 10 µM

# get_value(readout= EC50, system= PPARγ (Homo sapiens, UniProt P37231)) for O=C(O)CCc1cn(S(=O)(=O)c2ccccc2)c2ccc(-c3ccsc3)cc12 [compound 92]
≤ 10 µM

For the record COc1ccc2c(c1)c(CCC(=O)O)cn2S(=O)(=O)c1ccc(Cl)c(Cl)c1 [compound 53] , what value of EC50 is listed for PPARγ (Homo sapiens, UniProt P37231)?
≤ 10 µM

// map COc1ccc2c(c1)c(CCC(=O)O)cn2S(=O)(=O)c1cccc(OC(F)(F)F)c1 [compound 79] to recorded EC50 (system: PPARγ (Homo sapiens, UniProt P37231))
≤ 10 µM

----------
Biological target: UniProtKB Q03181
Sequence (Q03181 1-441): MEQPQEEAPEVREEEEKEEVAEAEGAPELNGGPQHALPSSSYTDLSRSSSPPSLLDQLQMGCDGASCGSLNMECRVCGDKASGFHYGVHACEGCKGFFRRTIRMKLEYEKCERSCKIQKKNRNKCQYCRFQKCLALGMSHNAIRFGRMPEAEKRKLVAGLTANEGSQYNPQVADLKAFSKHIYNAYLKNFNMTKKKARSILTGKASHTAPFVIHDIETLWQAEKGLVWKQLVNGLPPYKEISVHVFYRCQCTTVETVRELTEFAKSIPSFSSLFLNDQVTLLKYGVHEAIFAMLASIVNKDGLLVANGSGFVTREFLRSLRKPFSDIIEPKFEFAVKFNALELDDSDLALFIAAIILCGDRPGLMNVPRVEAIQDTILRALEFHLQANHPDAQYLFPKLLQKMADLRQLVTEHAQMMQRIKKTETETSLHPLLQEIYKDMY
Experiment: Alpha screen assay, agonist mode, ligand dependent interaction of PPAR with coactivator peptide
Type: biochemical
Details: agonist mode, read-out: PPARδ Agonist
pEC50: −log10 of the molar value.
PROPERTY: pEC50

Which pEC50 value is on record for COc1ccc2c(c1)c(CCC(=O)O)cn2Cc1ccccc1 [compound 71] ?
< 5.00

I am curious: what pEC50 value has been reported for COc1ccc2c(c1)c(CCC(=O)O)cn2C(=O)c1ccccc1 [compound 81] ?
< 5.00

So what's the measured pEC50 for this one? O=C(O)CCc1nn(S(=O)(=O)c2ccccc2)c2ccccc12 [compound 39]
< 5.00

Data request, read-out pEC50, for CCc1ccc2c(c1)c(CCC(=O)O)cn2S(=O)(=O)c1ccccc1 [compound 6]
< 5.00

Please give the measured pEC50 for this compound: COc1ccc2c(c1)c(CCC(=O)O)cn2C(=O)Nc1ccccc1 [compound 85]
< 5.00

Sample COc1ccc2c(c1)c(CCC(=O)O)cn2S(=O)(=O)c1ccccc1 [compound 29] — what was its pEC50?
≥ 5.00

----------
Biological target: PPARγ (Homo sapiens)
Test: Alpha screen assay, agonist mode, ligand dependent interaction of PPAR with coactivator peptide
Format: biochemical
Conditions: Alpha screen; read-out: activity on PPARγ
PROPERTY: EC50

EC50 lookup needed for CCc1ccc2c(c1)c(CCC(=O)O)cn2S(=O)(=O)c1ccccc1 , thanks.
~8 µM

----------
Biological target: PPARδ (Homo sapiens)
Assay: Alpha screen assay, agonist mode, ligand dependent interaction of PPAR with coactivator peptide
Assay type: biochemical
Details: agonist mode, read-out: PPARδ Agonist
pEC50: −log10 of the molar value.
PROPERTY: pEC50

I would be grateful if you could share the reported pEC50 for CCCCc1ccc(S(=O)(=O)n2cc(CCC(=O)O)c3cc(OC)ccc32)cc1 [compound 77] .
≥ 5.00

# get_value(readout='pEC50', item= CCOc1ccc2c(c1)c(CCC(=O)O)cn2S(=O)(=O)c1ccccc1 [compound 82] )
≥ 5.00

Return reported pEC50; argument: O=C(O)CCc1cn(S(=O)(=O)c2ccccc2)c2ccccc12 [compound 97]
< 5.00

Entry COc1ccc2c(c1)c(CCC(=O)O)cn2S(=O)(=O)c1ccc(Cl)cc1 [compound 49] : reported pEC50 = ?
≥ 5.00

Given O=C(O)CCc1cn(S(=O)(=O)c2ccccc2)c2ccc(-c3ccsc3)cc12 [compound 92] , state its recorded pEC50.
< 5.00

// returns reported pEC50 for input CCCCOc1ccc(S(=O)(=O)n2cc(CCC(=O)O)c3cc(OC)ccc32)cc1 [compound 43]
≥ 5.00

Look up pEC50 for this compound: COc1ccc2c(c1)c(CCC(=O)O)cn2S(=O)(=O)c1cccc(OC(F)(F)F)c1 [compound 79]
≥ 5.00

I am curious: what pEC50 value has been reported for COc1ccc2c(c1)c(CCC(=O)O)cn2C(=S)Nc1ccccc1 [compound 75] ?
< 5.00

Entry COc1ccc2c(c1)c(CCC(=O)O)cn2S(=O)(=O)c1ccc(Cl)c(Cl)c1 [compound 53] has what pEC50?
≥ 5.00

----------
Target: PPARγ (Homo sapiens, UniProt P37231)
Assay: Alpha screen assay, agonist mode, ligand dependent interaction of PPAR with coactivator peptide
Type: biochemical
Details: Alpha screen, agonist mode; read-out: PPARγ Agonist
PROPERTY: EC50

Any idea what EC50 came out for O=C(O)CCc1cn(S(=O)(=O)c2ccccc2)c2ccccc12 [compound 97] on PPARγ (Homo sapiens, UniProt P37231)?
> 10 µM

Request body: readout EC50, system PPARγ (Homo sapiens, UniProt P37231), query CCCCOc1ccc(S(=O)(=O)n2cc(CCC(=O)O)c3cc(OC)ccc32)cc1 [compound 43] . Return the value.
≤ 10 µM

# value lookup — system PPARγ (Homo sapiens, UniProt P37231), readout EC50, item CCc1ccc2c(c1)c(CCC(=O)O)cn2S(=O)(=O)c1ccccc1 [compound 6]
≤ 10 µM

# value lookup — system PPARγ (Homo sapiens, UniProt P37231), readout EC50, item COc1ccc2c(c1)c(CCC(=O)O)cn2C(=S)Nc1ccccc1 [compound 75]
> 10 µM

Kindly state the measured EC50 obtained for COc1ccc2c(c1)c(CCC(=O)O)cn2Cc1ccccc1 [compound 71] with PPARγ (Homo sapiens, UniProt P37231).
> 10 µM

What is its EC50 for PPARγ (Homo sapiens, UniProt P37231)? Entry: COc1ccc2c(c1)c(CCC(=O)O)cn2S(=O)(=O)c1ccccc1 [compound 29]
≤ 10 µM

Request body: readout EC50, system PPARγ (Homo sapiens, UniProt P37231), query COc1ccc2c(c1)c(CCC(=O)O)cn2C(=O)Nc1ccccc1 [compound 85] . Return the value.
> 10 µM

What value of EC50 on PPARγ (Homo sapiens, UniProt P37231) does O=C(O)CCc1nn(S(=O)(=O)c2ccccc2)c2ccccc12 [compound 39] have?
> 10 µM

API: value(readout= EC50, system= PPARγ (Homo sapiens, UniProt P37231), query= COc1ccc2c(c1)c(CCC(=O)O)cn2C(=O)c1ccccc1 [compound 81] )
> 10 µM

----------
Biological target: UniProtKB Q07869
Sequence (Q07869 whole entry): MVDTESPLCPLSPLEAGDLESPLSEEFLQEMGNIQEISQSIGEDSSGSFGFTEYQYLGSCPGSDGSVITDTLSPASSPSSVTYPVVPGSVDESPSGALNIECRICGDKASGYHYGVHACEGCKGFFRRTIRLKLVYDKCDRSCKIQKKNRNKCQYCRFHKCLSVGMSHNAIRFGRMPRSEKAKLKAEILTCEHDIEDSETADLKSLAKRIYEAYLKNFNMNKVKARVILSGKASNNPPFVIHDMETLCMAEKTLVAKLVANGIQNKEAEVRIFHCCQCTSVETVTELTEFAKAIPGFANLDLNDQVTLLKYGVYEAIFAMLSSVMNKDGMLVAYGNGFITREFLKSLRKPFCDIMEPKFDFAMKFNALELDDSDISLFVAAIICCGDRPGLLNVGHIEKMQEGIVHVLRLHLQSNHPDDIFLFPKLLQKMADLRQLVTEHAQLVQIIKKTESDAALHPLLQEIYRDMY
Assay: Alpha screen assay, agonist mode, ligand dependent interaction of PPAR with coactivator peptide
Assay type: biochemical
Conditions: read-out: activity on PPARα
PROPERTY: EC50

# query: EC50 of entry CCc1ccc2c(c1)c(CCC(=O)O)cn2S(=O)(=O)c1ccccc1 [compound 6]
≥ 200 µM

----------
Molecular target: UniProt:Q07869
Test: Alpha screen assay, agonist mode, ligand dependent interaction of PPAR with coactivator peptide
Format: biochemical
Conditions: agonist mode, read-out: PPARα agonist
PROPERTY: EC50

Quick one: EC50 for O=C(O)CCc1nn(S(=O)(=O)c2ccccc2)c2ccccc12 [compound 39] ?
> 10 µM

# input molecule: COc1ccc2c(c1)c(CCC(=O)O)cn2C(=O)c1ccccc1 [compound 81] ; wanted: its EC50
≤ 10 µM

I have this molecule here, COc1ccc2c(c1)c(CCC(=O)O)cn2C(=S)Nc1ccccc1 [compound 75] , and I need its recorded EC50.
> 10 µM

I would be grateful if you could share the reported EC50 for COc1ccc2c(c1)c(CCC(=O)O)cn2S(=O)(=O)c1ccc(Cl)cc1 [compound 49] .
≤ 10 µM

Entry under review: COc1ccc2c(c1)c(CCC(=O)O)cn2Cc1ccccc1 [compound 71] . Reported EC50?
≤ 10 µM

Look up EC50 for this molecule: COc1ccc2c(c1)c(CCC(=O)O)cn2S(=O)(=O)c1ccccc1 [compound 29]
≤ 10 µM

Give its EC50 value. Item: CCCCc1ccc(S(=O)(=O)n2cc(CCC(=O)O)c3cc(OC)ccc32)cc1 [compound 77]
≤ 10 µM

Which EC50 value is on record for CCc1ccc2c(c1)c(CCC(=O)O)cn2S(=O)(=O)c1ccccc1 [compound 6] ?
> 10 µM

So what's the measured EC50 for this one? CCOc1ccc2c(c1)c(CCC(=O)O)cn2S(=O)(=O)c1ccccc1 [compound 82]
≤ 10 µM

Which EC50 is reported for this molecule? CCCCOc1ccc(S(=O)(=O)n2cc(CCC(=O)O)c3cc(OC)ccc32)cc1 [compound 43]
≤ 10 µM

For the molecule O=C(O)CCc1cn(S(=O)(=O)c2ccccc2)c2ccccc12 [compound 97] , what EC50 is on record?
> 10 µM

For COc1ccc2c(c1)c(CCC(=O)O)cn2S(=O)(=O)c1ccc(Cl)c(Cl)c1 [compound 53] , what is its reported EC50?
≤ 10 µM

Dear colleague, I am looking for the recorded EC50 of the following molecule: COc1ccc2c(c1)c(CCC(=O)O)cn2C(=O)Nc1ccccc1 [compound 85]
> 10 µM

Given O=C(O)CCc1cn(S(=O)(=O)c2ccccc2)c2ccc(-c3ccsc3)cc12 [compound 92] , state its recorded EC50.
≤ 10 µM

Field request: EC50 | item: COc1ccc2c(c1)c(CCC(=O)O)cn2S(=O)(=O)c1cccc(OC(F)(F)F)c1 [compound 79]
≤ 10 µM
